biological target: AgrC-I receptor (Staphylococcus epidermidis); test: cell-based; assay type: cell-based, S. epidermidis; conditions: dose response
Sequence (Q5HMY3 entry or part of it): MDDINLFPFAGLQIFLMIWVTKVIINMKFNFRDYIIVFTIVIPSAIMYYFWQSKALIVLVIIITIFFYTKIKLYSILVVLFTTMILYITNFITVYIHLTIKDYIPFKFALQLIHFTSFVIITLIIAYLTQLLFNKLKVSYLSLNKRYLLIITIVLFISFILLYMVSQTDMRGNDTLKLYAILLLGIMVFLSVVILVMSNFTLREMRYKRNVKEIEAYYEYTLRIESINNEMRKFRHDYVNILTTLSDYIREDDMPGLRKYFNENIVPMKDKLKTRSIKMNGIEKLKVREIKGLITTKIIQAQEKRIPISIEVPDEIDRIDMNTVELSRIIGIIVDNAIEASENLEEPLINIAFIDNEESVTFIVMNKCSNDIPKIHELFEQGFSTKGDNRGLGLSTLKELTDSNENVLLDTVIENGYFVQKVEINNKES
Parameter: Mode/strength of activity toward AgrC-I (Group I), in words

1) KYNVCSNYL [AIP-II 9aa P4V, K-Y-N-V-C-S-N-Y-L] : antagonist
2) KYVPCSNYL [AIP-II 9aa N3V, K-Y-V-P-C-S-N-Y-L] : antagonist
3) KYLPCSNYL [AIP-II 9aa N3L, K-Y-L-P-C-S-N-Y-L] : antagonist
